System: K. pneumoniae TYPE 1
method: Antibacterial activity (MIC), Japan Society of Chemotherapy standard method
Type: cell-based
cond: Klebsiella pneumoniae, TYPE1, K. pneumoniae TYPE 1; read-out: MIC
reported_property: MIC (µg/mL)
Answers are plain numbers, in µg/mL.

Illustrative cases are given below, each with its answer.
compound: O=C(O)c1cn(C2CC2)c2cc(N3CCNCC3)c(F)cc2c1=O [CPFX, ciprofloxacin, reference compound]
test_target: K. pneumoniae TYPE 1
reported_property: MIC
data_value: 0.025
//
compound: Cc1c(N2CC[C@@H](C(N)c3ccccc3)C2)c(F)c(N)c2c(=O)c(C(=O)O)cn([C@@H]3C[C@@H]3F)c12 (stereo partly drawn)
test_target: K. pneumoniae TYPE 1
reported_property: MIC
data_value: 0.013
//
compound: Cc1c(N2CC[C@@H]([C@H](C)N)C2)c(F)c(N)c2c(=O)c(C(=O)O)cn([C@@H]3C[C@@H]3F)c12 [Control drug 1, reference compound]
test_target: K. pneumoniae TYPE 1
reported_property: MIC
data_value: 0.05
//
compound: COc1c(N2CC[C@@H](C(N)c3ccccc3)C2)c(F)cc2c(=O)c(C(=O)O)cn([C@@H]3C[C@@H]3F)c12 (stereo partly drawn)
test_target: K. pneumoniae TYPE 1
reported_property: MIC
data_value: 0.025
//
compound: Nc1c(F)c(N2CC[C@@H](C(N)c3cccnc3)C2)c(F)c2c1c(=O)c(C(=O)O)cn2[C@@H]1C[C@@H]1F (stereo partly drawn)
test_target: K. pneumoniae TYPE 1
reported_property: MIC
data_value: 0.025

// query Query for K. pneumoniae TYPE 1: what MIC does the record show for Nc1c(F)c(N2CC[C@@H](C(N)c3ccco3)C2)c(F)c2c1c(=O)c(C(=O)O)cn2[C@@H]1C[C@@H]1F (stereo partly drawn) ?
// result 0.025

----------
Test system: K. pneumoniae TYPE 1
method: Antibacterial activity (MIC), Japan Society of Chemotherapy standard method
Format: cell-based
cond: K. pneumoniae TYPE 1
Consider the following compounds; for each one, report its MIC.
Report as: number unit

Illustrative cases are given below, each with its answer.
compound: Nc1c(F)c(N2CC[C@@H](C(N)c3ccccc3)C2)c(F)c2c1c(=O)c(C(=O)O)cn2[C@@H]1C[C@@H]1F (single isomer, unassigned) [Example 1]
MIC: 0.05 µg/mL
//
compound: Nc1c(F)c(N2CC[C@@H](C(N)c3ccc(F)cc3F)C2)c(F)c2c1c(=O)c(C(=O)O)cn2[C@@H]1C[C@@H]1F (some centres unmarked)
MIC: 0.013 µg/mL
//
compound: C[C@H]1COc2c(N3CC[C@@H](C(N)c4ccccc4)C3)c(F)cc3c(=O)c(C(=O)O)cn1c23 (some centres unmarked)
MIC: 0.025 µg/mL

// batch mode: one MIC value per listed entry
1. Nc1c(F)c(N2CC[C@@H](C(N)c3ccccn3)C2)c(F)c2c1c(=O)c(C(=O)O)cn2[C@@H]1C[C@@H]1F (some centres unmarked)
2. COc1ccccc1C(N)[C@@H]1CCN(c2c(F)c(N)c3c(=O)c(C(=O)O)cn([C@@H]4C[C@@H]4F)c3c2F)C1 (some centres unmarked)
3. Nc1c(F)c(N2CC[C@@H](C(N)c3ccccc3)C2)c(F)c2c1c(=O)c(C(=O)O)cn2[C@@H]1C[C@@H]1F (single isomer, unassigned) [Example 2]
4. Cc1c(N2CC[C@@H](C(N)c3ccccn3)C2)c(F)c(N)c2c(=O)c(C(=O)O)cn([C@@H]3C[C@@H]3F)c12 (some centres unmarked)
5. Nc1c(F)c(N2CC[C@@H](C(N)c3ccco3)C2)c(F)c2c1c(=O)c(C(=O)O)cn2[C@@H]1C[C@@H]1F (some centres unmarked)

// result
1: 0.025 µg/mL; 2: 0.05 µg/mL; 3: 0.013 µg/mL; 4: 0.05 µg/mL; 5: 0.025 µg/mL
